System: monoclonal F40-11G6 antibody (anti-PCB monoclonal antibody)
METHOD: 1 ppm PCB immunoassay (competitive ELISA), cross-reactivity of compounds found at PCB sites or of similar structure
Format: binding, Balb/c mice
CONDITION_DESCRIPTION: positive compared to the kit standard (AROCLOR 1248, 0.7 ppm) in the 1 ppm PCB immunoassay
Exercise: state measured CONCENTRATION GIVING A POSITIVE RESULT; SOIL EQUIVALENT for each of the compounds provided.

Recorded CONCENTRATION GIVING A POSITIVE RESULT; SOIL EQUIVALENT, per entry:
{"STRUCTURE_AS_SMILES": "O=C(O)COc1ccc(Cl)cc1Cl", "EXPERIMENTAL_TARGET": "monoclonal F40-11G6 antibody (anti-PCB monoclonal antibody)", "READING": "1,000-10,000 PPM"}
{"STRUCTURE_AS_SMILES": "COC(=O)c1cc(Oc2ccc(Cl)cc2Cl)ccc1[N+](=O)[O-]", "EXPERIMENTAL_TARGET": "monoclonal F40-11G6 antibody (anti-PCB monoclonal antibody)", "READING": "100-1,000 PPM"}
{"STRUCTURE_AS_SMILES": "Clc1c2ccccc2c(Cl)c2ccccc12", "EXPERIMENTAL_TARGET": "monoclonal F40-11G6 antibody (anti-PCB monoclonal antibody)", "READING": "> 10,000 PPM"}

List CONCENTRATION GIVING A POSITIVE RESULT; SOIL EQUIVALENT for every entry below, keeping the order given.
1. Clc1cc(Cl)c(-c2ccc(-c3ccccc3)cc2)c(Cl)c1
2. Clc1cccc2ccccc12
3. ClC=C(Cl)Cl

Response given:
["> 10,000 PPM", "> 10,000 PPM", "> 10,000 PPM"]

----------
Exercise: state measured CONCENTRATION GIVING A POSITIVE RESULT; SOIL EQUIVALENT for each of the compounds provided.
Test system: monoclonal F40-11G6 antibody (anti-PCB monoclonal antibody)
METHOD: 1 ppm PCB immunoassay (competitive ELISA), cross-reactivity of compounds found at PCB sites or of similar structure
Format: binding, Balb/c mice
CONDITION_DESCRIPTION: positive compared to the kit standard (AROCLOR 1248, 0.7 ppm) in the 1 ppm PCB immunoassay
Description: The immunoassay of the present invention is performed according to the following procedure. […] The optical density (OD) of the test sample was compared to the OD of the AROCLOR 1248 standard (0.7 ppm) which was tested simultaneously with the sample. […] Other concentration ranges can be assessed by diluting the test samples with suitable diluents, as long as they are non-reactive with the components of the assay. […]

List CONCENTRATION GIVING A POSITIVE RESULT; SOIL EQUIVALENT for every entry below, keeping the order given.
1. Oc1c(Cl)cc(Cl)c2ccccc12 [2,4-DICHLORO-1-NAPTHOL]
2. Clc1cc(Cl)c(Cl)c(Cl)c1Cl [PENTACHLOROBENZENE]
3. c1ccc2ccccc2c1 [NAPHTHALENE]
4. Clc1ccc(Cl)c(Cl)c1 [1,2,4-TRICHLOROBENZENE]
5. O=S(=O)(Oc1ccc(Cl)cc1Cl)c1ccccc1 [2,4-DICHLOROPHENYL BENZENESULFONATE]
6. O=S(=O)(c1ccc(Cl)cc1)c1cc(Cl)c(Cl)cc1Cl [TETRADIFON]
7. Clc1c(Cl)c(Cl)c(Cl)c(Cl)c1Cl [HEXACHLOROBENZENE]
8. CC(Oc1cc(Cl)c(Cl)cc1Cl)C(=O)O (stereo not shown) [SILVEX]

Response given:
["50 PPM", "> 10,000 PPM", "> 10,000 PPM", "100-1,000 PPM", "100-1,000 PPM", "10-100 PPM", "> 10,000 PPM", "100-1,000 PPM"]

List CONCENTRATION GIVING A POSITIVE RESULT; SOIL EQUIVALENT for every entry below, keeping the order given.
1. Oc1c(Cl)c(Cl)c(Cl)c(Cl)c1Cl [PENTACHLOROPHENOL]
2. Clc1ccc(C(c2ccccc2Cl)C(Cl)(Cl)Cl)cc1 (stereo not shown) [O,P-DDT]

Response given:
["> 10,000 PPM", "> 10,000 PPM"]
